Recorded values, source BindingDB's records for doi:10.1021/jm030146j.

target.system: Integrin alpha-IIb/beta-3 (Homo sapiens, UniProt P08514+P05106)
Sequence (P05106 27-788 limits assumed): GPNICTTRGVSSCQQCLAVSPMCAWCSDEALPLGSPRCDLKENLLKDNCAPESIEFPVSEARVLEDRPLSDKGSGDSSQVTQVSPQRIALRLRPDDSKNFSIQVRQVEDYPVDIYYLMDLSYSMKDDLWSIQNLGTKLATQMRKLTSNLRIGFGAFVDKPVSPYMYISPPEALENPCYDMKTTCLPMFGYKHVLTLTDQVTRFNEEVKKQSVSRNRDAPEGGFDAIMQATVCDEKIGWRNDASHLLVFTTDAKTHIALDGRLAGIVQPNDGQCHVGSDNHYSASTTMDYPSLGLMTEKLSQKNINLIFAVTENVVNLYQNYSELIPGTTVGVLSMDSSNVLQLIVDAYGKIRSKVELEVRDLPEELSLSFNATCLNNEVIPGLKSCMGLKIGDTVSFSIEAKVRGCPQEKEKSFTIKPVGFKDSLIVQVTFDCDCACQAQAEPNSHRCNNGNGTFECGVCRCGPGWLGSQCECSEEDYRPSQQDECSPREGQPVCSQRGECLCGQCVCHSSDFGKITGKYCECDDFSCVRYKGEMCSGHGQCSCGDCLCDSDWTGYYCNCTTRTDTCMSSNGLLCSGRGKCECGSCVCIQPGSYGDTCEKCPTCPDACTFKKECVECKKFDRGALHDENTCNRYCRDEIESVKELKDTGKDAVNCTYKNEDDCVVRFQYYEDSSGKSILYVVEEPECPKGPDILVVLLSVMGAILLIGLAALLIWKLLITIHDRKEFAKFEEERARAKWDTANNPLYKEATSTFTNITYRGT
Sequence (P08514 32-887 limits assumed): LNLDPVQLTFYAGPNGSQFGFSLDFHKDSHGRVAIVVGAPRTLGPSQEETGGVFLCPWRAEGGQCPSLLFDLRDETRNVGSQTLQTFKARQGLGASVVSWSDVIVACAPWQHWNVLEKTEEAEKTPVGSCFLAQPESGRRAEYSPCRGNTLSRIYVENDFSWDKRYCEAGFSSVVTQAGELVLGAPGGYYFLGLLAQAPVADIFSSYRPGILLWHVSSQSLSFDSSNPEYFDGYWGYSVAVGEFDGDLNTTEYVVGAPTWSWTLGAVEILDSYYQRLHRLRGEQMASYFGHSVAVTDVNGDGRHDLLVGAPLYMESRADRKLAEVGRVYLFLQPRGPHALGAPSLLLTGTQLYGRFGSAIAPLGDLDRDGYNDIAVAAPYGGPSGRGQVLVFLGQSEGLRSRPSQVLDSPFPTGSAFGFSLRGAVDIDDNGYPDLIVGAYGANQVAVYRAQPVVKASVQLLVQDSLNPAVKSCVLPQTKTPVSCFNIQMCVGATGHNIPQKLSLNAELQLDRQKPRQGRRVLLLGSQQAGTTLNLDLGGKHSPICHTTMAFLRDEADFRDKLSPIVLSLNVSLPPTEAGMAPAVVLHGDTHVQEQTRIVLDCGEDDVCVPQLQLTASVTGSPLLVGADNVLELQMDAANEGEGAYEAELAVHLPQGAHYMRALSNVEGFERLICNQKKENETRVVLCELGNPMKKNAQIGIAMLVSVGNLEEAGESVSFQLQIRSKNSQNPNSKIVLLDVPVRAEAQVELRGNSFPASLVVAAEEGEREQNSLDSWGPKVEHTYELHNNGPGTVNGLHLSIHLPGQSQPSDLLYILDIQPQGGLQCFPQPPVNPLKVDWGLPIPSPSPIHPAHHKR
Sequence (P08514 891-1039 limits assumed): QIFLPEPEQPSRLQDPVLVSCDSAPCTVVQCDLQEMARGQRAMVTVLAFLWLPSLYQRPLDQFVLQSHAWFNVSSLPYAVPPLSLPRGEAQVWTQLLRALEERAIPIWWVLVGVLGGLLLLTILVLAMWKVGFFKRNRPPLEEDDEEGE
assay.name: Inhibition of human alphaIIb-beta3 integrin in platelet aggregation assay
Give pIC50 for every item shown.
Answers are plain numbers, as −log10 of the molar value.

CC1(C)[C@@H]2CC[C@@]1(CS(=O)(=O)N[C@@H](CNC(=O)c1ccc(CCc3ccc4c(n3)NCCC4)cc1)C(=O)O)C(=O)C2 = 6.80

// switching to the query molecule
[in] Please tell me: pIC50 of O=C(NC[C@H](NS(=O)(=O)c1ccccc1)C(=O)O)c1ccc(N2CCNCC2)cc1 , system Integrin alpha-IIb/beta-3 (Homo sapiens, UniProt P08514+P05106)?
[out] 7.80

---

Give pIC50 for every item shown.
target.system: Integrin alpha-IIb/beta-3 (Homo sapiens, UniProt P08514+P05106)
assay.name: Inhibition of human alphaIIb-beta3 integrin in platelet aggregation assay
pIC50: −log10 of the molar value.

A selection of reference data follows.
O=C(O)CC(NC(=O)CCCCc1ccc2c(n1)NCCC2)c1cncnc1 (stereo not drawn) = < 5.00
O=C(O)C[C@H](NC(=O)CN1CC[C@H](CCc2ccc3c(n2)NCCC3)C1=O)c1cccnc1 = < 5.00

// switching to the query compound
[in] Which pIC50 is reported for this compound? CNc1cccc(CCOc2ccc3c(c2)CN(CC(F)(F)F)C(=O)[C@H](CC(=O)O)C3)n1
[out] < 5.00
